Biological target: SARS-CoV-2 spike ectodomain (S-ecto), Wuhan-hu-1 strain, 2P (SARS-CoV-2, Wuhan-hu-1, UniProt P0DTC2, 2P mutation at residues 986 and 987 | 2P mutation at residues 986 and 987, biotin (NHS-sulfo-LC-Biotin, EZ-link biotinylation kit))
Experiment: BLI
Conditions: both partners purified
reported.property: koff (s⁻¹)
Answers are plain numbers, in s⁻¹.

1. humanized SW186 H2L1 (antibody, V domains shown) VH: QVQLVQSGAEVKKPGSSVKVSCKASGVAFSSYWMNWVRQAPGQGLEWIGQIYPGDGDTNYNGKFKGRVTITADKSTSTAYMELSSLRSEDTAVYFCARGFIATVEETMDYWGQGTLVTVSS VL: DIQMTQSPSSLSASVGDRVTITCRASQDISNYLNWYQQKPGKAPKLLIYYTSRLHSGVPSRFSGSGSGTDFTLTISSLQPEDFATYYCQQSHTLPWTFGGGTKLEIK    0.00078
2. humanized SW186 H4L4 (antibody, V domains shown) VH: QVQLVQSGAEVKKPGSSVKVSCKASGVAFSSYWMNWVKQAPGQGLEWIGQIYPGDGDTNYNGKFKGKATITADKSTSTAYMELSSLRSEDTAVYFCARGFIATVEETMDYWGQGTLVTVSS VL: DIQMTQSPSSLSASVGDRVTITCRASQDISNYLNWYQQKPGKTVKLLIYYTSRLHSGVPSRFSGSGSGTDYTLTISSLQPEDFATYFCQQSHTLPWTFGGGTKLEIK    0.000338

Req: Answer with the recorded koff of humanized SW186 H4L3 (antibody, V domains shown) VH: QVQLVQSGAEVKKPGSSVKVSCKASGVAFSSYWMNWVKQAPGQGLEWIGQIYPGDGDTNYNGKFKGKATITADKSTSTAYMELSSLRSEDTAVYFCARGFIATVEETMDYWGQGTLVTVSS VL: DIQMTQSPSSLSASVGDRVTITCRASQDISNYLNWYQQKPGKAPKLLIYYTSRLHSGVPSRFSGSGSGTDYTLTISSLQPEDFATYFCQQSHTLPWTFGGGTKLEIK only.
Resp: 0.000424

Data origin: paper PMC9407945
